B1: LINE1-mini (parent)
chain: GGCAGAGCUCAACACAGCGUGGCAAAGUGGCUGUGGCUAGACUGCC

# Variants of: B1
# Experiment Summary: self-cleavage, relative activity (ratio to wild type); higher = more cleavage; in vitro, sequencing; the parent is a self-cleaving ribozyme
We begin with a simple list: items and their reported self-cleavage.
Simply state the number, no unit and no words.

GGCAGAGCUCAAAACAGUGUGGCAAAGUGGCUGUGGCUAGACUGCC [C13A C18U]; 0.09

Task: For the variant GGCAGAGCUCAACACAGCCUGGCAAAGUGGCUGUGGCUAGUCUGCC [G19C A41U] , what self-cleavage is on record?
Result: 0.19

Task: For the variant GGCAGAGCUCAACACAGCUUGGCAAAGUAGCUGUGGCUAGACUGCC [G19U G29A] , what self-cleavage is on record?
Result: 0.93

Task: For the variant GGCAGAGCUCAACACAGCGUGGCAAAGUGGCUGUGUCUAGACUGCC [G36U] , what self-cleavage is on record?
Result: 0.08

Task: For the variant GGCAGAGCUCAACACAGCGUGGCAAAGUGGCUGUGGCUAGUGUGCC [A41U C42G] , what self-cleavage is on record?
Result: 0.07

Task: For the variant GGCAGAGCUCAACACAGCGUGGCAAAGUGGCUGUGGCUGGACAGCC [A39G U43A] , what self-cleavage is on record?
Result: 0.04

Task: For the variant GGCAGAGCUCAACACAGCGUGGGAAAGUGGCUGUGGCUAUACUGCC [C23G G40U] , what self-cleavage is on record?
Result: 0.14

Task: For the variant GGCAGAGCUCAACACAGCGUGGCAAAGUGUCUGUGGCUAGAAUGCC [G30U C42A] , what self-cleavage is on record?
Result: 0.12

Task: For the variant GGCACAGCUCAACACAGCGUGGCAAAGUUGCUGUGGCUAGACUGCC [G5C G29U] , what self-cleavage is on record?
Result: 0.12

Task: For the variant GGCGGAGCUCAACACAGCGUGGCUAAGUGGCUGUGGCUAGACUGCC [A4G A24U] , what self-cleavage is on record?
Result: 1.02

Task: For the variant GGCAGAGCUCAACACAGCGUGGCAGAGUGGCUGUGGGUAGACUGCC [A25G C37G] , what self-cleavage is on record?
Result: 0.03

Task: For the variant GGCAGAGCGCAACACAGCGUGGCAAAGUGGCUAUGGCUAGACUGCC [U9G G33A] , what self-cleavage is on record?
Result: 0.06

Task: For the variant GGCAGAGCUCAUCACAGCGUGGCAAAGUGGGUGUGGCUAGACUGCC [A12U C31G] , what self-cleavage is on record?
Result: 0.04

Task: For the variant GGCAGAGCUCACCACAGCGUGGCAAAGUGGCUGUGCCUAGACUGCC [A12C G36C] , what self-cleavage is on record?
Result: 0.02
